Assay: loss of swimming-algae plug formation – whole organism, Chlamydomonas reinhardtii, WT vs cilia-less mutant, absorbance, 96-well, primary screen (AID 463189);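 further: 0% = wild type cc124 cells in DMSO and 100% = ciliumless bld1 mutant cells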
Settings: Chlamydomonas reinhardtii gravitaxis, OD600 absorbance, 2 days; at 10 µM
Active and inactive are the calls of the source.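 How the source made its calls: active means inhibition at or above 50% relative to wild type and mutant plate controls; inactive means inhibition below 50%.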
Field 'call' accepts 1 (yes) = active, 0 (no) = inactive

For orientation, consider the following solved cases.
compound=NC(=Nc1ccccc1)NC(=O)c1nc(Cl)c(N)nc1N label="0 (no)"
compound=O=C(CCN1CCc2ccccc2CC1)c1ccc2c(c1)OCCO2 label="0 (no)"
compound=NC/C=C\C(=O)O label="0 (no)"

I'd appreciate the recorded outcome for Cc1cccc(/C=C/c2ccccc2)n1 from this test.
0 (no)

# fetch the recorded call for NC(N)=NCCSSCCN=C(N)N here
0 (no)

What was the test verdict on C[C@@H](CN1CCC(Cc2ccccc2)CC1)[C@@H](O)c1ccc(O)cc1 ?
0 (no)

Can you look up the reported call for Cc1ccc2c(c1)C(N1CCN(C)CC1)=Nc1cccnc1N2 for me?
0 (no)

For COc1cc(=O)n(C)c2c(OCC(O)C(C)(C)O)cccc12 (centres undefined) , what call appears in the results of this test?
0 (no)

Which outcome was assigned to Cc1cccc(OCC(=O)NCC(=O)n2nc(C)cc2C)c1 in this test?
0 (no)

Please let me know the test result on file for Oc1cc(O)cc(/C=C/c2ccc(O)c(O)c2)c1 .
0 (no)

Look up the recorded call for Oc1ccc(C2CNCCc3c2cc(O)c(O)c3Cl)cc1 (centres undefined) in this test.
0 (no)

How did this test come out for CCCCCC(O)c1cccc(OCc2ccc3ccccc3n2)c1 (centres undefined) ?
0 (no)

How was COc1ccc(CCNC[C@@H](O)c2ccc(O)cc2)cc1OC classified in this test?
0 (no)

Short answer needed: outcome of this test for Brc1ccc([C@H]2CN3CCSC3=N2)cc1 ?
1 (yes)
